The values you see were collected from the supplement of paper PMC6555819.

# Tested on: PPARg:RXRa IVT, anti-PPARg (NR concentration 270 nM, RXRa partner concentration 90 nM)
# PROTOCOL_SUMMARY: PBM binding z-score (relative to random genomic background probes); higher = stronger binding; sequences stand for … in GC…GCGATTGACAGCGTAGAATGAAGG
QUANTITY_MEASURED: PBM binding z-score

SEQUENCE: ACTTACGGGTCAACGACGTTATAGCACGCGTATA
EXPERIMENTAL_TARGET: PPARg:RXRa IVT, anti-PPARg (NR concentration 270 nM, RXRa partner concentration 90 nM)
RESULT_VALUE: 3.74

SEQUENCE: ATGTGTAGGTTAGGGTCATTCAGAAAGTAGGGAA
EXPERIMENTAL_TARGET: PPARg:RXRa IVT, anti-PPARg (NR concentration 270 nM, RXRa partner concentration 90 nM)
RESULT_VALUE: 3.98

SEQUENCE: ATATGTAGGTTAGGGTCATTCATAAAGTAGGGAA
EXPERIMENTAL_TARGET: PPARg:RXRa IVT, anti-PPARg (NR concentration 270 nM, RXRa partner concentration 90 nM)
RESULT_VALUE: 7.14

SEQUENCE: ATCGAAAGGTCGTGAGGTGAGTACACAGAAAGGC
EXPERIMENTAL_TARGET: PPARg:RXRa IVT, anti-PPARg (NR concentration 270 nM, RXRa partner concentration 90 nM)
RESULT_VALUE: 2.33

SEQUENCE: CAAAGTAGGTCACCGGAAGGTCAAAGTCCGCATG
EXPERIMENTAL_TARGET: PPARg:RXRa IVT, anti-PPARg (NR concentration 270 nM, RXRa partner concentration 90 nM)
RESULT_VALUE: 9.1

SEQUENCE: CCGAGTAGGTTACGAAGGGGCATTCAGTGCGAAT
EXPERIMENTAL_TARGET: PPARg:RXRa IVT, anti-PPARg (NR concentration 270 nM, RXRa partner concentration 90 nM)
RESULT_VALUE: 3.33

SEQUENCE: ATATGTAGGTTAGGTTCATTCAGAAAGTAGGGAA
EXPERIMENTAL_TARGET: PPARg:RXRa IVT, anti-PPARg (NR concentration 270 nM, RXRa partner concentration 90 nM)
RESULT_VALUE: 5.61

SEQUENCE: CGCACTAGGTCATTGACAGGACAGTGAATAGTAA
EXPERIMENTAL_TARGET: PPARg:RXRa IVT, anti-PPARg (NR concentration 270 nM, RXRa partner concentration 90 nM)
RESULT_VALUE: 8.26

SEQUENCE: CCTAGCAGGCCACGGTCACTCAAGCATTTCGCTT
EXPERIMENTAL_TARGET: PPARg:RXRa IVT, anti-PPARg (NR concentration 270 nM, RXRa partner concentration 90 nM)
RESULT_VALUE: 1.83

SEQUENCE: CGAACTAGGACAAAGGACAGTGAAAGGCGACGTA
EXPERIMENTAL_TARGET: PPARg:RXRa IVT, anti-PPARg (NR concentration 270 nM, RXRa partner concentration 90 nM)
RESULT_VALUE: 4.05

SEQUENCE: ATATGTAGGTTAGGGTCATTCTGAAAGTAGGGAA
EXPERIMENTAL_TARGET: PPARg:RXRa IVT, anti-PPARg (NR concentration 270 nM, RXRa partner concentration 90 nM)
RESULT_VALUE: 6.44

SEQUENCE: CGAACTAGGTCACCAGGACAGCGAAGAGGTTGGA
EXPERIMENTAL_TARGET: PPARg:RXRa IVT, anti-PPARg (NR concentration 270 nM, RXRa partner concentration 90 nM)
RESULT_VALUE: 8.67

SEQUENCE: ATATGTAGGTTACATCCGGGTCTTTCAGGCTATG
EXPERIMENTAL_TARGET: PPARg:RXRa IVT, anti-PPARg (NR concentration 270 nM, RXRa partner concentration 90 nM)
RESULT_VALUE: 7.42

SEQUENCE: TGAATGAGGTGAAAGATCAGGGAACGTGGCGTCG
EXPERIMENTAL_TARGET: PPARg:RXRa IVT, anti-PPARg (NR concentration 270 nM, RXRa partner concentration 90 nM)
RESULT_VALUE: 5

SEQUENCE: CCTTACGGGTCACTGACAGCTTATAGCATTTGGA
EXPERIMENTAL_TARGET: PPARg:RXRa IVT, anti-PPARg (NR concentration 270 nM, RXRa partner concentration 90 nM)
RESULT_VALUE: 3.59

SEQUENCE: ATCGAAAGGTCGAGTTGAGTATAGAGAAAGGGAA
EXPERIMENTAL_TARGET: PPARg:RXRa IVT, anti-PPARg (NR concentration 270 nM, RXRa partner concentration 90 nM)
RESULT_VALUE: 1.21

SEQUENCE: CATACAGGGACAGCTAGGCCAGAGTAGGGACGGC
EXPERIMENTAL_TARGET: PPARg:RXRa IVT, anti-PPARg (NR concentration 270 nM, RXRa partner concentration 90 nM)
RESULT_VALUE: -0.181

SEQUENCE: CTATGGAGGTTAAGGGGGTCATTCAGTTTGAAAG
EXPERIMENTAL_TARGET: PPARg:RXRa IVT, anti-PPARg (NR concentration 270 nM, RXRa partner concentration 90 nM)
RESULT_VALUE: 6.42

SEQUENCE: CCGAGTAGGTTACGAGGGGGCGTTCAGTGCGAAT
EXPERIMENTAL_TARGET: PPARg:RXRa IVT, anti-PPARg (NR concentration 270 nM, RXRa partner concentration 90 nM)
RESULT_VALUE: 4.63

SEQUENCE: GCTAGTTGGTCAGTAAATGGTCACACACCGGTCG
EXPERIMENTAL_TARGET: PPARg:RXRa IVT, anti-PPARg (NR concentration 270 nM, RXRa partner concentration 90 nM)
RESULT_VALUE: 0.493

SEQUENCE: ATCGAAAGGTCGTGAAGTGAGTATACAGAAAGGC
EXPERIMENTAL_TARGET: PPARg:RXRa IVT, anti-PPARg (NR concentration 270 nM, RXRa partner concentration 90 nM)
RESULT_VALUE: 1.76

SEQUENCE: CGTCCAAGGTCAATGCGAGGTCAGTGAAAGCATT
EXPERIMENTAL_TARGET: PPARg:RXRa IVT, anti-PPARg (NR concentration 270 nM, RXRa partner concentration 90 nM)
RESULT_VALUE: 4.05

SEQUENCE: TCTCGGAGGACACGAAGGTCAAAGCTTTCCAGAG
EXPERIMENTAL_TARGET: PPARg:RXRa IVT, anti-PPARg (NR concentration 270 nM, RXRa partner concentration 90 nM)
RESULT_VALUE: 1.71

SEQUENCE: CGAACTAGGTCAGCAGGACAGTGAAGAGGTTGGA
EXPERIMENTAL_TARGET: PPARg:RXRa IVT, anti-PPARg (NR concentration 270 nM, RXRa partner concentration 90 nM)
RESULT_VALUE: 7.57

SEQUENCE: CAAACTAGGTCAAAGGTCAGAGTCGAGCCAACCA
EXPERIMENTAL_TARGET: PPARg:RXRa IVT, anti-PPARg (NR concentration 270 nM, RXRa partner concentration 90 nM)
RESULT_VALUE: 9.43

SEQUENCE: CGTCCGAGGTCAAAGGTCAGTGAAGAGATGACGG
EXPERIMENTAL_TARGET: PPARg:RXRa IVT, anti-PPARg (NR concentration 270 nM, RXRa partner concentration 90 nM)
RESULT_VALUE: 6.35

SEQUENCE: TCGAGTAGGTTCCGGGGGCATTCAGGGATGAAGA
EXPERIMENTAL_TARGET: PPARg:RXRa IVT, anti-PPARg (NR concentration 270 nM, RXRa partner concentration 90 nM)
RESULT_VALUE: 2.23

SEQUENCE: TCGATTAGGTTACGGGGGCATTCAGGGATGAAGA
EXPERIMENTAL_TARGET: PPARg:RXRa IVT, anti-PPARg (NR concentration 270 nM, RXRa partner concentration 90 nM)
RESULT_VALUE: 5.84

SEQUENCE: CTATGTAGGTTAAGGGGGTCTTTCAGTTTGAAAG
EXPERIMENTAL_TARGET: PPARg:RXRa IVT, anti-PPARg (NR concentration 270 nM, RXRa partner concentration 90 nM)
RESULT_VALUE: 7.07

SEQUENCE: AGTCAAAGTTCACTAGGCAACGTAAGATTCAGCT
EXPERIMENTAL_TARGET: PPARg:RXRa IVT, anti-PPARg (NR concentration 270 nM, RXRa partner concentration 90 nM)
RESULT_VALUE: 3.93

SEQUENCE: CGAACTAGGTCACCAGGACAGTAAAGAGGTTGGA
EXPERIMENTAL_TARGET: PPARg:RXRa IVT, anti-PPARg (NR concentration 270 nM, RXRa partner concentration 90 nM)
RESULT_VALUE: 8.87

SEQUENCE: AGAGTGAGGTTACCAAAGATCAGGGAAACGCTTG
EXPERIMENTAL_TARGET: PPARg:RXRa IVT, anti-PPARg (NR concentration 270 nM, RXRa partner concentration 90 nM)
RESULT_VALUE: 1.49

SEQUENCE: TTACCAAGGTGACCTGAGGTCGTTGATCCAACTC
EXPERIMENTAL_TARGET: PPARg:RXRa IVT, anti-PPARg (NR concentration 270 nM, RXRa partner concentration 90 nM)
RESULT_VALUE: 2.92

SEQUENCE: AGAATGGGGTTATTAAGATCAGGGAATTGCGGTC
EXPERIMENTAL_TARGET: PPARg:RXRa IVT, anti-PPARg (NR concentration 270 nM, RXRa partner concentration 90 nM)
RESULT_VALUE: 3.26

SEQUENCE: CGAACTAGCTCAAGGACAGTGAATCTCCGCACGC
EXPERIMENTAL_TARGET: PPARg:RXRa IVT, anti-PPARg (NR concentration 270 nM, RXRa partner concentration 90 nM)
RESULT_VALUE: -0.559

SEQUENCE: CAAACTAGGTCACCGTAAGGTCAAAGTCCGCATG
EXPERIMENTAL_TARGET: PPARg:RXRa IVT, anti-PPARg (NR concentration 270 nM, RXRa partner concentration 90 nM)
RESULT_VALUE: 9.03

SEQUENCE: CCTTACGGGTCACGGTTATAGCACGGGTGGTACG
EXPERIMENTAL_TARGET: PPARg:RXRa IVT, anti-PPARg (NR concentration 270 nM, RXRa partner concentration 90 nM)
RESULT_VALUE: 4.79

SEQUENCE: CCTACTGGGCCATCAGGTGATTGATATCAACGTT
EXPERIMENTAL_TARGET: PPARg:RXRa IVT, anti-PPARg (NR concentration 270 nM, RXRa partner concentration 90 nM)
RESULT_VALUE: 4.34

SEQUENCE: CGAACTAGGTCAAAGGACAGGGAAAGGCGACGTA
EXPERIMENTAL_TARGET: PPARg:RXRa IVT, anti-PPARg (NR concentration 270 nM, RXRa partner concentration 90 nM)
RESULT_VALUE: 8.19

SEQUENCE: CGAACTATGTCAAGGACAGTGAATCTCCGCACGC
EXPERIMENTAL_TARGET: PPARg:RXRa IVT, anti-PPARg (NR concentration 270 nM, RXRa partner concentration 90 nM)
RESULT_VALUE: 2.11

SEQUENCE: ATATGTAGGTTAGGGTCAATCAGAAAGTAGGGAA
EXPERIMENTAL_TARGET: PPARg:RXRa IVT, anti-PPARg (NR concentration 270 nM, RXRa partner concentration 90 nM)
RESULT_VALUE: 6.62

SEQUENCE: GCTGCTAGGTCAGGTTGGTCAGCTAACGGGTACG
EXPERIMENTAL_TARGET: PPARg:RXRa IVT, anti-PPARg (NR concentration 270 nM, RXRa partner concentration 90 nM)
RESULT_VALUE: 2.05

SEQUENCE: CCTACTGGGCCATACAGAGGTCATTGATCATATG
EXPERIMENTAL_TARGET: PPARg:RXRa IVT, anti-PPARg (NR concentration 270 nM, RXRa partner concentration 90 nM)
RESULT_VALUE: 4.21

SEQUENCE: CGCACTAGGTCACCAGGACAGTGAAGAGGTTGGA
EXPERIMENTAL_TARGET: PPARg:RXRa IVT, anti-PPARg (NR concentration 270 nM, RXRa partner concentration 90 nM)
RESULT_VALUE: 8.52

SEQUENCE: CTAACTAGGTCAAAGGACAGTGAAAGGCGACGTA
EXPERIMENTAL_TARGET: PPARg:RXRa IVT, anti-PPARg (NR concentration 270 nM, RXRa partner concentration 90 nM)
RESULT_VALUE: 8.84

SEQUENCE: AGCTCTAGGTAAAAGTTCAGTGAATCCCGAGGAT
EXPERIMENTAL_TARGET: PPARg:RXRa IVT, anti-PPARg (NR concentration 270 nM, RXRa partner concentration 90 nM)
RESULT_VALUE: 2.87

SEQUENCE: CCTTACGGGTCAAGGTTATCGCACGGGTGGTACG
EXPERIMENTAL_TARGET: PPARg:RXRa IVT, anti-PPARg (NR concentration 270 nM, RXRa partner concentration 90 nM)
RESULT_VALUE: 3.71

SEQUENCE: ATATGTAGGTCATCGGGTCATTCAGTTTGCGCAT
EXPERIMENTAL_TARGET: PPARg:RXRa IVT, anti-PPARg (NR concentration 270 nM, RXRa partner concentration 90 nM)
RESULT_VALUE: 8.83

SEQUENCE: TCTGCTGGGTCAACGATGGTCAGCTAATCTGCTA
EXPERIMENTAL_TARGET: PPARg:RXRa IVT, anti-PPARg (NR concentration 270 nM, RXRa partner concentration 90 nM)
RESULT_VALUE: 3.7

SEQUENCE: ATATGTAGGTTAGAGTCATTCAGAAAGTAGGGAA
EXPERIMENTAL_TARGET: PPARg:RXRa IVT, anti-PPARg (NR concentration 270 nM, RXRa partner concentration 90 nM)
RESULT_VALUE: 6.41

SEQUENCE: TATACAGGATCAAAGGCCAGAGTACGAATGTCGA
EXPERIMENTAL_TARGET: PPARg:RXRa IVT, anti-PPARg (NR concentration 270 nM, RXRa partner concentration 90 nM)
RESULT_VALUE: 1.03
